Experiment: rat CNS penetration (Kp)
Format: in vivo
Conditions: brain/plasma
assayMetric: Kp

>>> valueobserved("Cn1nc(OC[C@H]2COCCO2)c2ccc(NC(=O)c3ncccc3N)cc21 [Compound 131]")
1.6

====

Target: UniProtKB Q14833
Sequence (Q14833 33-912): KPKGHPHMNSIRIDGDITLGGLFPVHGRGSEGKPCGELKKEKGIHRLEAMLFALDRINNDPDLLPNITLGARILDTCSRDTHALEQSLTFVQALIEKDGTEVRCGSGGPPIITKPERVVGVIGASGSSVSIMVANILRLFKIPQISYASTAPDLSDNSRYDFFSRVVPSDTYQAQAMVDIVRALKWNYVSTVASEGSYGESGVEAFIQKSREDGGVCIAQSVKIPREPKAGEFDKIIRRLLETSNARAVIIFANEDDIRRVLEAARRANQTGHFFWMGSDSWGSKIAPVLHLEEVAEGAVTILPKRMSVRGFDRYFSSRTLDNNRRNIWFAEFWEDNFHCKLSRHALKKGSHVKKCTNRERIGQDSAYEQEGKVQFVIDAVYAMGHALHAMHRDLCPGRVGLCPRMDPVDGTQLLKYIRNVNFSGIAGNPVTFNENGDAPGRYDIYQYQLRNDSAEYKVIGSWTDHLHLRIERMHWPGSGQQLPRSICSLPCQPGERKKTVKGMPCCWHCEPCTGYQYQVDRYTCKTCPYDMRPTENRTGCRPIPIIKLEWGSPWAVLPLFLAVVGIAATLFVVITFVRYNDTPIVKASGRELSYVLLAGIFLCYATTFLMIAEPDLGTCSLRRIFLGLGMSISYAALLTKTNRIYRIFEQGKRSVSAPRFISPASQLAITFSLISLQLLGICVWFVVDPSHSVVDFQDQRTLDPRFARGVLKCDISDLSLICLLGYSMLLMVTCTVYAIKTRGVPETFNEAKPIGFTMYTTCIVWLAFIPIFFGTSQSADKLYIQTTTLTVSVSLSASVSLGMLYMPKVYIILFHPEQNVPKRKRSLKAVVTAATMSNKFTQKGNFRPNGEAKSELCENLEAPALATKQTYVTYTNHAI
Assay: mGlu4 PAM assay in human mGlu4/Gqi5 cells with ~EC20 glutamate (Hamamatsu FDSS)
Assay type: cell-based
Conditions: ~EC20 concentration of glutamate, read-out: mGlu4 PAM EC50
assayMetric: EC50 (nM)

>>> valueobserved("Cn1nc(OCC2CCCOC2)c2ccc(Nc3n[nH]c4cccnc34)cc21 (stereo not drawn)")
63.8
>>> valueobserved("Cn1nc(OCCN2CCOCC2)c2ccc(NC(=O)c3ccccn3)cc21")
703
>>> valueobserved("Cn1nc(OCc2ccccn2)c2ccc(Nc3n[nH]c4cccnc34)cc21")
462
>>> valueobserved("Cn1nc(OCC2CCOC2)c2ccc(NC(=O)c3ccccn3)cc21 (stereo not drawn)")
81.2
>>> valueobserved("Cn1nc(OC2CCS(=O)(=O)CC2)c2ccc(NC(=O)c3ncccc3O)cc21")
403
>>> valueobserved("Cn1nc(OC[C@@H]2COCCO2)c2ccc(NC(=O)c3ncccc3N)cc21 [Compound 93]")
30.5
>>> valueobserved("CC1CC(Oc2nn(C)c3cc(Nc4n[nH]c5cccnc45)ccc23)CCO1 (stereo not drawn)")
134
>>> valueobserved("Cn1nc(OCC2COC(C)(C)C2)c2ccc(NC(=O)c3ncccc3N)cc21 (stereo not drawn)")
109
>>> valueobserved("Cn1nc(OC2CCOCC2F)c2ccc(Nc3n[nH]c4cccnc34)cc21 (stereo not drawn)")
89
>>> valueobserved("Cn1nc(OCC2CCOCC2)c2ncc(NC(=O)c3ncccc3O)cc21")
599
>>> valueobserved("Cn1nc(OCC2CCCOC2)c2ncc(NC(=O)c3ncccc3N)cc21 (stereo not drawn)")
181
>>> valueobserved("CC1CC(COc2nn(C)c3cc(NC(=O)c4ncccc4N)ccc23)CC(C)O1 (stereo not drawn)")
187
>>> valueobserved("CCCOc1nn(C)c2cc(Nc3n[nH]c4cccnc34)ccc12")
171
>>> valueobserved("Cn1nc(OCC2CCOCC2)c2ccc(NC(=O)c3ncccc3N)cc21")
87.7
>>> valueobserved("Cn1nc(OCC2CCOC2)c2ccc(Nc3n[nH]c4ncccc34)cc21 (stereo not drawn)")
135
>>> valueobserved("CC1CC(Oc2nn(C)c3cc(NC(=O)c4ccccn4)ccc23)CCO1 (stereo not drawn)")
398
>>> valueobserved("Cn1nc(OCC2CCOC2)c2ccc(NC(=O)c3cccc(F)n3)cc21 (stereo not drawn)")
211
>>> valueobserved("Cn1nc(O[C@H]2CCOC2)c2ccc(Nc3n[nH]c4cccnc34)cc21")
456
>>> valueobserved("Cn1nc(OC2CCOCC2F)c2ccc(NC(=O)c3ncccc3N)cc21 (stereo not drawn)")
125
>>> valueobserved("Cn1nc(OC2CCOC(C)(C)C2)c2ccc(NC(=O)c3ncccc3N)cc21 (stereo not drawn)")
131
>>> valueobserved("Cn1nc(OCC2CCOC2)c2ccc(NC(=O)c3ncccc3O)cc21 (stereo not drawn)")
53
>>> valueobserved("CC1CC(Oc2nn(C)c3cc(NC(=O)c4ncccc4N)ccc23)CCO1 (stereo not drawn)")
431
>>> valueobserved("Cn1nc(OCC2CCOC2)c2ncc(NC(=O)c3ncccc3N)cc21 (stereo not drawn)")
86.8
>>> valueobserved("Cn1nc(OCC2CCOC2)c2ccc(NC(=O)c3cc(F)ccn3)cc21 (stereo not drawn)")
991
>>> valueobserved("Cn1nc(OC2CCOC(C)(C)C2)c2ccc(NC(=O)c3ncccc3O)cc21 (stereo not drawn)")
117
>>> valueobserved("Cn1nc(OCC2COCCO2)c2ccc(NC(=O)c3ncccc3N)cc21 (stereo not drawn)")
66.1
>>> valueobserved("[2H]C([2H])(C)Oc1nn(C)c2cc(Nc3n[nH]c4cccnc34)ccc12")
356
>>> valueobserved("Cn1nc(OC2CCS(=O)(=O)CC2)c2ccc(NC(=O)c3ccccn3)cc21")
417
>>> valueobserved("Cn1nc(OCC2CCOC2)c2ccc(NC(=O)c3ncc(F)cc3F)cc21 (stereo not drawn)")
801
>>> valueobserved("Cn1nc(OC[C@@H]2CCOC2)c2ncc(NC(=O)c3ncccc3N)cc21")
120
>>> valueobserved("Cn1nc(OCC2COC(C)(C)C2)c2ccc(NC(=O)c3ccc(F)cn3)cc21 (stereo not drawn)")
297
>>> valueobserved("Cn1nc(OC[C@H]2COCCO2)c2ccc(NC(=O)c3ncccc3N)cc21 [Compound 94]")
58.7
>>> valueobserved("CC1CC(Oc2nn(C)c3cc(NC(=O)c4ncccc4O)ccc23)CCO1 (stereo not drawn)")
431
>>> valueobserved("Cn1nc(OCC2CCOC(C)(C)C2)c2ccc(NC(=O)c3ccc(F)cn3)cc21 (stereo not drawn)")
277
>>> valueobserved("Cc1ccc(C(=O)Nc2ccc3c(OCC4CCOC4)nn(C)c3c2)nc1 (stereo not drawn)")
574
>>> valueobserved("Cn1nc(OC[C@H]2COCCO2)c2ccc(NC(=O)c3ccccn3)cc21")
205
